All values here come from paper PMC12704249.

TARGET: BChE isolated from equine serum (Equus caballus)
Construct: BChE isolated from equine serum (≥10 U per mg protein)
Sequence (P81908 whole entry): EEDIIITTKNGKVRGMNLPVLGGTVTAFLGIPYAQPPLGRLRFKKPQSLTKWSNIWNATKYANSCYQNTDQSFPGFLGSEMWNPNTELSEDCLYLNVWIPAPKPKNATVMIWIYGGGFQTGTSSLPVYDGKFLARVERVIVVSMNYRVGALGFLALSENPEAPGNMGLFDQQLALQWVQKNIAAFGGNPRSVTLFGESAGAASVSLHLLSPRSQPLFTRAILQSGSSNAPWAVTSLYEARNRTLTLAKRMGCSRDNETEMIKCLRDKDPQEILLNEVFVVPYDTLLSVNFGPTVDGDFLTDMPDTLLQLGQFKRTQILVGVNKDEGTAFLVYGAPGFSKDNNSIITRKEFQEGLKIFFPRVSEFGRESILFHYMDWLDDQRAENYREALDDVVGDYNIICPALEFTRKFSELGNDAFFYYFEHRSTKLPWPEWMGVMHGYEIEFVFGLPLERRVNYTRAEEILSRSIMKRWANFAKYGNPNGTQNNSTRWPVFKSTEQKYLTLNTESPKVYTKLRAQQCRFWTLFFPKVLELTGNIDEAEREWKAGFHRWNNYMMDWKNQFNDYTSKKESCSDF
TEST PROTOCOL: BChE inhibition assay (modified Ellman's colorimetric method, Lineweaver–Burk Ki)
TEST PARAMETERS: Lineweaver–Burk plots; 0.1 M Tris–HCl pH 8.0; substrate butyrylthiocholine iodide
Threshold 40 nM. Ki below it: criterion met. Ki at it or above: criterion not met.

[[record]]
molecule = "C=CCN1C(=O)/C(=C/c2cc(Br)c(O)c(CN3CCOCC3)c2)SC1=S [Compound 12]"
category = "criterion not met"

[[record]]
molecule = "C=CCN1C(=O)/C(=C/c2cc(CN3CCc4ccccc4C3)c(O)c(OC)c2)SC1=S [Compound 6]"
category = "criterion met"

[[record]]
molecule = "C=CCN1C(=O)/C(=C/c2cc(CN3CCOCC3)c(O)c(OCC)c2)SC1=S [Compound 8]"
category = "criterion not met"

[[record]]
molecule = "C=CCN1C(=O)/C(=C/c2cc(CN3CCOCC3)c(O)c(OC)c2)SC1=S [Compound 1]"
category = "criterion not met"

[[record]]
molecule = "C=CCN1C(=O)/C(=C/c2cc(CN3CCN(C(=O)OCC)CC3)c(O)c(OC)c2)SC1=S [Compound 4]"
category = "criterion met"

[[record]]
molecule = "C=CCN1C(=O)/C(=C/c2cc(CN3CCc4ccccc4C3)c(O)c(OCC)c2)SC1=S [Compound 11]"
category = "criterion met"

[[record]]
molecule = "C=CCN1C(=O)/C(=C/c2cc(CN3CCN(c4ccccc4)CC3)c(O)c(OC)c2)SC1=S [Compound 3]"
category = "criterion not met"

